Target or system UniProtKB Q16790: recorded Ki listed per item.

| chemicalStructure | Ki [nM] |
| --- | --- |
| CC1CCN(C(=O)c2ccc(S(N)(=O)=O)cc2)CC1 | 3.4 |
| NS(=O)(=O)c1ccc(C(=O)N2CCC(O)(c3ccc(Cl)cc3)CC2)cc1 | 24.9 |
| N#CC1(c2ccccc2)CCN(C(=O)c2ccc(S(N)(=O)=O)cc2)CC1 | 18.4 |
| CC(=O)C1(c2ccccc2)CCN(C(=O)c2ccc(S(N)(=O)=O)cc2)CC1 | 3.1 |
| NS(=O)(=O)c1ccc(C(=O)N2CCN(Cc3ccccc3)CC2)cc1 | 33.1 |
| NS(=O)(=O)c1ccc(C(=O)N2CCC(O)(c3ccccc3)CC2)cc1 | 22.6 |

Data origin, for the record: ChEMBL document CHEMBL4330089
